- Target system: Histamine H2 receptor (Cavia porcellus) (UniProt P47747)
- Sequence (P47747 whole entry): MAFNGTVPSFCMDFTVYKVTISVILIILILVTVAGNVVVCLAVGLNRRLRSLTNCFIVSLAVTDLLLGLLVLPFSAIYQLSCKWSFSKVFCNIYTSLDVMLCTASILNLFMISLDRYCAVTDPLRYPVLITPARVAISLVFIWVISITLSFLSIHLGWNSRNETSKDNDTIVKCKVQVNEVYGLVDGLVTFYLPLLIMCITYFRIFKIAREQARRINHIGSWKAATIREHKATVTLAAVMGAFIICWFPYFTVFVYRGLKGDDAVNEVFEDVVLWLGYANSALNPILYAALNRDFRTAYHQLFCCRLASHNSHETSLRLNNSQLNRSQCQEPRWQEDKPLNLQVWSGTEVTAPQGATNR
- Measurement notes: Histamine H2 receptor antagonism at a concentration of 1 umolar on the isolated guinea pig right atrium.
- Assay type: functional, tissue-based
- Run conditions: Cardiac atrium
Endpoint label: pKB
Numbers only.

{"columns": ["Compound", "Value"],
 "data": [
  ["N#CN/C(=N\\CCNC(=O)c1ccc(N)cc1)NCCCOc1cccc(CN2CCCCC2)c1 [AMINOPOTENTIDINE]", 7.22],
  ["N#CN/C(=N\\CCCCNC(=O)c1ccc(N)cc1)NCCCOc1cccc(CN2CCCCC2)c1", 6.31],
  ["N#CN/C(=N\\CCCNc1ccccc1[N+](=O)[O-])NCCCCOc1cccc(CN2CCCCC2)c1", 7.85],
  ["Cc1ccc(S(=O)(=O)NCC/N=C(\\NC#N)NCCCOc2cccc(CN3CCCCC3)c2)cc1", 6.13],
  ["N#CN/C(=N\\CCNC(=O)CCc1ccccc1)NCCCOc1cccc(CN2CCCCC2)c1", 6.27]
]}

Quick one: give me pKB for each item below, same order please.
1. CNC(=C[N+](=O)[O-])NCCSCc1ccc(CN(C)C)o1 [RANITIDINE]
2. CN/C(=N\CCSCc1nc[nH]c1C)NC#N
3. N#CN/C(=N\CCNC(=O)c1ccccc1)NCCCCOc1cccc(CN2CCCCC2)c1
4. N#CN/C(=N\CCCNC(=O)CCc1ccccc1)NCCCOc1cccc(CN2CCCCC2)c1

[reply]
7.2
6.4
7.67
6.07

Quick one: give me pKB for each item below, same order please.
1. N#CN/C(=N\CCCCCNC(=O)c1ccccc1)NCCCOc1cccc(CN2CCCCC2)c1
2. O=C(NCCCOc1cccc(CN2CCCCC2)c1)NCCNC(=O)c1ccccc1
3. N#CN/C(=N\CCNC(=O)Cc1ccccc1)NCCCOc1cccc(CN2CCCCC2)c1
4. N#CN/C(=N\CCCNC(=O)c1ccccc1)NCCCCOc1cccc(CN2CCCCC2)c1
5. N#CN/C(=N\CCOC(=O)c1ccccc1)NCCCOc1cccc(CN2CCCCC2)c1

[reply]
1: 6.58; 2: 6.1; 3: 6.93; 4: 6.6; 5: 7.64

Quick one: give me pKB for each item below, same order please.
1. N#CN/C(=N\CCCCCCNC(=O)c1ccccc1)NCCCOc1cccc(CN2CCCCC2)c1
2. N#CN/C(=N\CCNc1ccc(N=[N+]=[N-])cc1[N+](=O)[O-])NCCCOc1cccc(CN2CCCCC2)c1
3. N#CN/C(=N\CCCCNC(=O)c1ccccc1)NCCCOc1cccc(CN2CCCCC2)c1
4. CC(C)(C)OC(=O)Nc1ccc(CC(=O)NCC/N=C(\NC#N)NCCCCOc2cccc(CN3CCCCC3)c2)cc1
5. N#CN/C(=N\CCNS(=O)(=O)c1ccccc1)NCCCCOc1cccc(CN2CCCCC2)c1

[reply]
1: 6.6; 2: 7.39; 3: 6.81; 4: 6.04; 5: 7.28
